- Procedure Summary: Tissue (brain/lung) exposure, IP administration
- Type: in vivo, mouse
- Condition Parameters: 4.0 h, IP 10 mg/kg, individual mice; 10 mg/kg, 240 min; read-out: Total Brain Parenchyma Concentration, individual
Endpoint: concentration (nM)
Number in nM, nothing else.

Measured concentration, NC(=O)C1CCN(c2ncccc2CNCc2cccc3[nH]ccc23)CC1 [Compound 22] : 60.1

---

- Procedure Summary: Mouse pharmacokinetics, IV administration
- Format: in vivo
- Condition Parameters: mouse, plasma; IV 3 mg/kg; extrapolation to infinity, approximation only; read-out: Plasma VSS
Endpoint: Vd
Show the value, then the unit it is measured in.

Measured Vd, NC(=O)C1CCN(c2ncccc2CNCc2cccc3[nH]ccc23)CC1 : 23.3 L/kg

---

- Procedure Summary: In vivo whole blood-to-plasma ratio
- Condition Parameters: IV 3 mg/kg, 1 h post dose, mouse blood, n=3; read-out: B/P ratio (whole blood-to-plasma)
Endpoint: blood plasma ratio at 1 h
Answer with a number only.

Measured blood plasma ratio at 1 h, NC(=O)C1CCN(c2ncccc2CNCc2cccc3[nH]ccc23)CC1 : 1.4

---

- Procedure Summary: Tissue (brain/lung) exposure, IP administration
- Format: in vivo, mouse
- Condition Parameters: mouse, lung, ip, 10 mg/kg, 0.5 h, mean, read-out: Total Lung Parenchyma Concentration, mean
Endpoint: concentration at 0.5 h
Show the value, then the unit it is measured in.

Measured concentration at 0.5 h, NC(=O)C1CCN(c2ncccc2CNCc2cccc3[nH]ccc23)CC1 : 3.8 µM

---

- Procedure Summary: Tissue (brain/lung) exposure, IP administration
- Type: in vivo, mouse
- Condition Parameters: mouse, lung, ip, 10 mg/kg, 24 h, mean, read-out: Total Lung Parenchyma Concentration, mean
Endpoint: concentration at 24 h (nM)
Number in nM, nothing else.

Measured concentration at 24 h, NC(=O)C1CCN(c2ncccc2CNCc2cccc3[nH]ccc23)CC1 [Compound 22] : 2.1

---

- Procedure Summary: Tissue (brain/lung) exposure, IP administration
- Assay type: in vivo, mouse
- Condition Parameters: mouse, brain, ip, 10 mg/kg, 4.0 h, mean, read-out: Unbound B:P ratio (Kp,uu), mean
Endpoint: Kp uu at 4 h

Measured Kp uu at 4 h, NC(=O)C1CCN(c2ncccc2CNCc2cccc3[nH]ccc23)CC1 : 7.72

---

- Procedure Summary: Tissue (brain/lung) exposure, IP administration
- Format: in vivo, mouse
- Condition Parameters: mouse, brain, ip, 10 mg/kg, 0.5 h, mean, read-out: Total Brain Parenchyma Concentration, mean
Endpoint: concentration at 0.5 h (nM)
Number in nM, nothing else.

Measured concentration at 0.5 h, NC(=O)C1CCN(c2ncccc2CNCc2cccc3[nH]ccc23)CC1 : 328

---

- Procedure Summary: Mouse pharmacokinetics, IP administration
- Assay type: in vivo
- Condition Parameters: mouse, plasma, ip, 10 mg/kg, truncated AUC0-7.5 h, likely slight underestimation, read-out: BA (apparent bioavailability)
Endpoint: bioavailability at 7.5 h (%)
Number in %, nothing else.

Measured bioavailability at 7.5 h, NC(=O)C1CCN(c2ncccc2CNCc2cccc3[nH]ccc23)CC1 : 47

---

- Procedure Summary: Tissue (brain/lung) exposure, IP administration
- Type: in vivo, mouse
- Condition Parameters: mouse, lung, ip, 10 mg/kg, 0.5 h, mean, read-out: L:P ratio, mean
Endpoint: Kp at 0.5 h
Answer with a number only.

Measured Kp at 0.5 h, NC(=O)C1CCN(c2ncccc2CNCc2cccc3[nH]ccc23)CC1 : 2.5
